Origin of values: the nanobody polyreactivity screen of Harvey et al. (2022)

# assay text: yeast display, Sf9 membrane polyspecificity reagent, FACS + sequencing; frameworks hold sequencing errors
value kind: polyreactivity (PSR sort gate)

Reference set (6 entries):
QVQLVESGGGLVHAGGSLLLSCAASGSTLRPNAMGWYRKAPGKERELVDAISSGGSTYYADSVKGRFTISRDNAKYSVYLQMNSLKPEDTAVYSCAAASERSGYYYWGQGTQVTVSS	high polyreactivity
QVQLVESGGGLVQAGGSLRLSCAASGSTFRVNAMGWYRQEPGKEREFVDAITWSTGSTYYADSVKGRFTISRDYAMNTVYLQMNSLKPEDTAVYYCAAREQTYSQRGKKLYYFWGQGTQVTVST	high polyreactivity
QVQLVESGGGLVQAGGSLRLSCAASGFTFSPNAMGWYRQAPGKERELVAAIDWNGGSTYYADSVKGRFTISRDNAKNTVYLQMNSLKPEDTAVYYCNADWVYWQYLTSFVTFDYWGQGTQVTVSS	low polyreactivity
QVQLVESGGGLVQAGGSLRLSCAASGFILSDNAMGWYRQAPGKEREFVAAITSSGGSTHYADSVKGRFTISRDNAKNTVYLQMNSLKPEDTAVYYCNTYPYLWGQGTQVTVSS	low polyreactivity
QVQLVESGGGLVQAGGSLRLSCAASGRTFRFYAMGWYRQAPGKERELVAAITYGGGSTYYADSVKGRFTISRDNAKNTVYLQMNSLKPEDTAVYYCAARAGRVPSWSGRTRYYYGGQGTQVTVSS	high polyreactivity
QVQLVESGGGLVQAGGSLRLSCAAFGFTFNAYALGWYRQAPGKERELVAGITSSGGGTYYADSVKGRFTISRDNAKNTVYLEMNSLKPEDTAVYYCNTYSYLFSRYGYWGQGTQVTVSS	high polyreactivity

-- ask Which polyreactivity (PSR sort gate) reading was recorded for the sequence QVQLVESGGGLVQAGGSLRLSCAASGSIFGVYTMGWYRQAPGKERELVAAITSAGSTYADSVKGRFTISRDKAKNTVYLQMNSLKPEDTAVYYCNAQSVLLSLRVELREPHEYWGQGTQVTVSS ?
-- reply low polyreactivity

-- ask Same question, QVQLVESGGGLVQAGGSLRLSCAASGLTFYRNAMGRYRQAPGKERELVAAITASGGRTYYADSVKGRFTISRDNAKNTVYLQMNSLKPEVTAVYYCAADGKVQGGYYWGQGTQVTVSS this time
-- reply high polyreactivity

-- ask Same question, QVQLVESGGGLVQAGGSLRLSCAASGVTFGGYAMGWYRQAPGKERELVAAISGSGGRTYYADSVKVRFTISRDNAMNTVYLQMNSLKPEDTAVYYCAADRASPYLENYWGQGTQVTVSS this time
-- reply low polyreactivity

-- ask Same question, QVQLVESGGGLVQAGGSLRLSCAASGRTFNLYAMVWSRQAPGKERELVAAISLSGGRTYYADSVKGRITISRDNAKNTVFLQMNRLNPEDTAVYYCNTDTSRRAVQYDYWGQGTQVSVSS this time
-- reply high polyreactivity

-- ask Same question, QFQLVESGGGLVQAGGSLRLSCAASGSIFRGTAMGWYRQAPGKERELVAAINKSGGSTYYADSVKGRFTISRDNAKNTVYLQMNSLKPEDTAVYYCAARGYFWSSYKYDYWGQGTEVTVSS this time
-- reply high polyreactivity

-- ask Same question, QVQLKDSGCGLVQAGGSLRLSCAASGTISYRYRMGWYREAPRKELELVAGISFGSITYYADSVKGRFTISRDNAKNTVYLQMNSLKPVDIAVYYCAVYQKSYRFFPYWGQGTQVTVSS this time
-- reply high polyreactivity

-- ask Same question, QVQLEESGGGLVQAGGSHRLICAASGSTFEYYAMGWYRQAPGKERELVAAINGIGGSTTYADSVKGRFTISRDTAKYTVYLQMNSLKPEDTAVYYCNADVARSKSQASAYDYWGQGTQVNVSS this time
-- reply low polyreactivity

-- ask Same question, QVQLVESGGGLVQAGGSLRLSCAASGIIFGRNTMGWYRPAPGKERELVAGISSNGGSTYYADSVKGRFTISRDNAKNTVYLQMNRLKPEDTAVYYCAAYYNIPDRRRVGYDYWGQGTQVTVSS this time
-- reply high polyreactivity
